All values here come from patent US5939428A.

What IC50 was measured for each of the following?
# Test system: HL-60 cells
# METHOD: in vitro cytotoxicity against growth of human leukemic HL-60 cells
# Type: cell-based
# RUN_CONDITIONS: read-out: IC50 for cell growth inhibition, HL-60
Give the value; after it, write the unit.

CC(C)COC(=O)Nc1cc(CO)cc(Nc2c3ccccc3nc3ccccc23)c1	18 nM

Quick request: IC50 for each listed item, please.
1. CNC(=O)c1cccc2c(Nc3cc(N)cc(CO)c3)c3cccc(C)c3nc12
2. Nc1cc(CO)cc(Nc2c3ccccc3nc3ccccc23)c1

144 nM
25 nM

Hey, quick one: what's IC50 for each of these?
1. CCOC(=O)Nc1cc(CO)cc(Nc2c3ccccc3nc3ccccc23)c1
2. CCOC(=O)Nc1cc(CO)cc(Nc2c3cccc(C)c3nc3c(C(=O)NC)cccc23)c1

["16 nM", "83 nM"]
